// reported AC50 per item
Test system: A549 viability, CellTiter-Glo ATP luminescence, 72 h
Experiment: A549 cell cytotoxicity, dose response, cytotoxicity control, CellTiter-Glo luminescence, dry powder, set 13 (AID 977617)

[
  {
    "CHEM_SMILES": "C[C@@H](O)C#Cc1ccc2c(c1)O[C@@H](CN(C)Cc1ccc(-c3ccccc3Cl)cc1)[C@@H](C)CN([C@@H](C)CO)S2(=O)=O",
    "AC50": "14.4 µM"
  },
  {
    "CHEM_SMILES": "C[C@@H](O)C#Cc1ccc2c(c1)O[C@@H](CN(C)Cc1ccc(-c3ccc(Cl)cc3)cc1)[C@@H](C)CN([C@@H](C)CO)S2(=O)=O",
    "AC50": "9.62 µM"
  },
  {
    "CHEM_SMILES": "C[C@H](CO)N1C[C@H](C)[C@@H](CN(C)Cc2ccc(-c3ccccc3)cc2)Oc2cc(C#C[C@@H](C)O)ccc2S1(=O)=O",
    "AC50": "27.1 µM"
  },
  {
    "CHEM_SMILES": "COc1ccccc1-c1ccc(CN(C)C[C@@H]2Oc3cc(C#C[C@@H](C)O)ccc3S(=O)(=O)N([C@@H](C)CO)C[C@@H]2C)cc1",
    "AC50": "12.9 µM"
  },
  {
    "CHEM_SMILES": "C[C@H](O)C#Cc1ccc2c(c1)O[C@@H](CN(C)Cc1ccc(-c3ccccc3)cc1)[C@H](C)CN([C@H](C)CO)S2(=O)=O",
    "AC50": "22.1 µM"
  },
  {
    "CHEM_SMILES": "Cc1ccc(-c2ccc(CN(C)C[C@@H]3Oc4cc(C#C[C@@H](C)O)ccc4S(=O)(=O)N([C@@H](C)CO)C[C@@H]3C)cc2)cc1",
    "AC50": "15.7 µM"
  },
  {
    "CHEM_SMILES": "C[C@H](O)C#Cc1ccc2c(c1)O[C@@H](CN(C)Cc1ccc(-c3ccccc3)cc1)[C@@H](C)CN([C@@H](C)CO)S2(=O)=O",
    "AC50": "22.6 µM"
  }
]
